# System: M. abscessus ATCC 19977
# TEST PROTOCOL: MIC assay in 96-well plate format, wild-type strain
# Type: cell-based, Mycobacterium abscessus
# MEASUREMENT CONTEXT: M. abscessus ATCC 19977; 90% growth inhibition; read-out: WT Mab MIC

{"columns": ["STRUCTURE NOTATION", "MIC, µM"],
 "data": [
  ["CO[C@H]1/C=C/O[C@@]2(C)Oc3c(C)c(O)c4c(c3C2=O)C2=NC3(CCN(CC(C)C)CC3)NC2=C(NC(=O)/C(C)=C/C=C/[C@H](C)[C@H](O)[C@@H](C)[C@@H](O)[C@@H](C)[C@H](OC(=O)c2ccccc2-c2ccccc2)[C@@H]1C)C4=O", 0.26],
  ["CO[C@H]1/C=C/O[C@@]2(C)Oc3c(C)c(O)c4c(c3C2=O)C2=NC3(CCN(CC(C)C)CC3)NC2=C(NC(=O)/C(C)=C/C=C/[C@H](C)[C@H](O)[C@@H](C)[C@@H](O)[C@@H](C)[C@H](OC(=O)c2ccccc2F)[C@@H]1C)C4=O", 0.06],
  ["CO[C@H]1/C=C/O[C@@]2(C)Oc3c(C)c(O)c4c(c3C2=O)C2=NC3(CCN(CC(C)C)CC3)NC2=C(NC(=O)/C(C)=C/C=C/[C@H](C)[C@H](O)[C@@H](C)[C@@H](O)[C@@H](C)[C@H](OC(=O)c2ccccc2)[C@@H]1C)C4=O", 0.053],
  ["COc1ccccc1C(=O)O[C@H]1[C@H](C)[C@H](O)[C@H](C)[C@@H](O)[C@@H](C)/C=C/C=C(\\C)C(=O)NC2=C3NC4(CCN(CC(C)C)CC4)N=C3c3c(c(O)c(C)c4c3C(=O)[C@@](C)(O/C=C/[C@H](OC)[C@H]1C)O4)C2=O", 0.03],
  ["CO[C@H]1/C=C/O[C@@]2(C)Oc3c(C)c(O)c4c(c3C2=O)C2=NC3(CCN(CC(C)C)CC3)NC2=C(NC(=O)/C(C)=C/C=C/[C@H](C)[C@H](O)[C@@H](C)[C@@H](O)[C@@H](C)[C@H](OC(=O)c2ccccc2C(F)(F)F)[C@@H]1C)C4=O", 0.1],
  ["CO[C@H]1/C=C/O[C@@]2(C)Oc3c(C)c(O)c4c(c3C2=O)C2=NC3(CCN(CC(C)C)CC3)NC2=C(NC(=O)/C(C)=C/C=C/[C@H](C)[C@H](O)[C@@H](C)[C@@H](O)[C@@H](C)[C@H](OC(=O)c2ccccc2Cl)[C@@H]1C)C4=O", 0.043],
  ["CO[C@H]1/C=C/O[C@@]2(C)Oc3c(C)c(O)c4c(c3C2=O)C2=NC3(CCN(CC(C)C)CC3)NC2=C(NC(=O)/C(C)=C/C=C/[C@H](C)[C@H](O)[C@@H](C)[C@@H](O)[C@@H](C)[C@H](OC(=O)c2ccc(C)cc2)[C@@H]1C)C4=O", 0.2],
  ["CCC(CC)C(=O)O[C@H]1[C@H](C)[C@H](O)[C@H](C)[C@@H](O)[C@@H](C)/C=C/C=C(\\C)C(=O)NC2=C3NC4(CCN(CC(C)C)CC4)N=C3c3c(c(O)c(C)c4c3C(=O)[C@@](C)(O/C=C/[C@H](OC)[C@H]1C)O4)C2=O", 1.15]
]}
